// data source = patent US5444063A

- assay_summary: Toxicity analysis of test compounds in 2.2.15 cells (neutral red dye uptake)
- Type: cell-based
- test_context: human, 300 μM
reported_property: viability at 300 µM
# output: number + unit

Recorded results for 2 compounds are shown here.
compound	viability at 300 µM
Nc1nc(N)c2ncn([C@H]3CO[C@@H](CO)O3)c2n1	49%
Nc1nc2c(ncn2[C@H]2CO[C@@H](CO)O2)c(=O)[nH]1	56%

# evaluate next
// query Look up viability at 300 µM for this compound: Nc1ccn([C@H]2CC[C@@H](CO)O2)c(=O)n1 [2',3'-ddC, 2',3'-dideoxycytosine, reference compound]
// result 44%

====

- assay_summary: Toxicity analysis of test compounds in 2.2.15 cells (neutral red dye uptake)
- Assay type: cell-based
- test_context: human, 10 μM
reported_property: viability at 10 µM (%)
Supply the numeric figure in %, leaving out any unit text.

// query Reported viability at 10 µM, compound "Nc1nc2c(ncn2[C@H]2CO[C@@H](CO)O2)c(=O)[nH]1" : ____
// result 100

// query Tell me the measured viability at 10 µM of "Nc1nc(N)c2ncn([C@H]3CO[C@@H](CO)O3)c2n1" , please.
// result 99
